Give measured pest or weed control at 100 µg/mL for each item. Keep answers brief.
# System: Southern root-knot nematode (Meloidogyne incognita)
# experiment-notes: Test on the preventive effect against Southern root-knot nematode (garden balsam seedlings)
# Format: in vivo
# measurement-context: 504 h, test solution B 100 ppm, 1 ml per seedling to base of garden balsam seedlings, 3 weeks in greenhouse, read-out: efficacy (root knot damage degree relative to non-treated plot)
# Method: Compounds of the present invention were dissolved in dimethyl sulfoxide to prepare 1 wt % solutions. Then, distilled water was added to dilute the solutions to the prescribed concentration (100 ppm), and the obtained solutions were used in the following the Test Examples 9 to 12. […]

COC(c1ncc(C#CC(C)(C)C)cc1Cl)C(C)NC(=O)c1ccccc1C(F)(F)F (stereo not drawn) ... ≥ 50%
Cn1cc(C(=O)NCCc2ncc(C#CC(C)(C)C)cc2Cl)c(C(F)F)n1 ... ≥ 50%

// below: pest or weed control at 100 µg/mL requested for another compound
Specify measured pest or weed control at 100 µg/mL for COC(CNC(=O)c1cn(C)nc1C(F)F)c1ncc(C#CC2CC2)cc1Cl (stereo not drawn) .
≥ 50%

====

measure: melting point

CCOC(=O)C(CNC(=O)c1cn(C)nc1C(F)F)(C(=O)OCC)c1ncc(C#CC2CC2)cc1Cl ... 87 to 88 °C
CC(C)(C)C#Cc1cnc(CCNC(=O)c2ccccc2C(F)(F)F)c(Cl)c1 ... 90 to 92 °C
C=C(CNC(=O)c1ccccc1C(F)(F)F)c1ncc(C#CC)cc1Cl ... 85 to 90 °C
O=C(NCC(F)(F)c1ncc(C#CC2CC2)cc1Cl)c1ccccc1C(F)(F)F ... 137 to 139 °C

// below: melting point requested for another compound
Specify measured melting point for CC(F)(CNC(=O)c1cccnc1C(F)F)c1ncc(C#CC2CC2)cc1Cl (centres unmarked) .
113 to 115 °C

====

# Test system: Asperaillus niger
# experiment-notes: Test on the antifungal activity against Asperaillus niger
# Format: cell-based
# measurement-context: 48 h; test solution B 100 ppm, 10 μl per well, 96 well plate, 25° C. dark, 2 days after treatment; read-out: efficacy (flora area ratio relative to non-treated well)
measure: inhibition of growth at 100 µg/mL

Below, each entry is followed by its recorded inhibition of growth at 100 µg/mL result.
CSC(CNC(=O)c1cccnc1C(F)F)c1ncc(C#CC2CC2)cc1Cl (centres unmarked) ... ≥ 50%
Cn1cc(C(=O)NCCc2ncc(C#CC(C)(C)C)cc2Cl)c(C(F)F)n1 ... ≥ 50%
O=C(NCC(c1ncc(C#CC2CC2)cc1Cl)C1CC1)c1ccccc1C(F)(F)F (centres unmarked) ... ≥ 50%
C=C(CNC(=O)c1cn(C)nc1C(F)F)c1ncc(C#CC2CC2)cc1Cl ... ≥ 50%
O=C(NCC(c1ncc(C#CC2CC2)cc1Cl)C1CC1)c1cccnc1C(F)F (centres unmarked) ... ≥ 50%
COC(c1ncc(C#CC2CC2)cc1Cl)C(C)NC(=O)c1cn(C)nc1C(F)F (centres unmarked) ... ≥ 50%

Batch request: inhibition of growth at 100 µg/mL per item, same order as input.
1. CC(CNC(=O)c1cccnc1C(F)F)c1ncc(C#CC2CC2)cc1Cl (centres unmarked)
2. Cc1nc(C(F)F)c(C(=O)NCC(C)c2ncc(C#CC3CC3)cc2Cl)s1 (centres unmarked)
3. O=C(NCC(F)(F)c1ncc(C#CC2CC2)cc1Cl)c1cccnc1C(F)F
4. COC(CNC(=O)c1cn(C)nc1C(F)F)c1ncc(C#CC2CC2)cc1Cl (centres unmarked)
5. O=C(NCC(F)(F)c1ncc(C#CC2CC2)cc1Cl)c1ccccc1C(F)(F)F
6. CC(CNC(=O)c1cccnc1Cl)c1ncc(C#CC2CC2)cc1Cl (centres unmarked)
7. COC(c1ncc(C#CC2CC2)cc1Cl)C(C)NC(=O)c1ccccc1C(F)(F)F (centres unmarked)
8. COC(c1ncc(C#CC2CC2)cc1Cl)C(C)NC(=O)c1sc(C)nc1C(F)F (centres unmarked) [9-006a]

1. ≥ 50%
2. ≥ 50%
3. ≥ 50%
4. ≥ 50%
5. ≥ 50%
6. ≥ 50%
7. ≥ 50%
8. ≥ 50%

Batch request: inhibition of growth at 100 µg/mL per item, same order as input.
1. COC(c1ncc(C#CC2CC2)cc1Cl)C(C)NC(=O)c1cccnc1C(F)F (centres unmarked)
2. COC(c1ncc(C#CC(C)(C)C)cc1Cl)C(C)NC(=O)c1ccccc1C(F)(F)F (centres unmarked)
3. CC(CNC(=O)c1cn(C)nc1C(F)F)c1ncc(C#CC2CC2)cc1Cl (centres unmarked)
4. CSC(CNC(=O)c1cn(C)nc1C(F)F)c1ncc(C#CC2CC2)cc1Cl (centres unmarked)
5. CC(CNC(=O)c1ccccc1C(F)(F)F)c1ncc(C#CC2CC2)cc1Cl (centres unmarked)

≥ 50%
≥ 50%
≥ 50%
≥ 50%
≥ 50%

Batch request: inhibition of growth at 100 µg/mL per item, same order as input.
1. Cn1cc(C(=O)NCC(C)(C)c2ncc(C#CC3CC3)cc2Cl)c(C(F)F)n1
2. O=C(NCCc1ncc(C#CC2CC2)cc1Cl)c1cccnc1C(F)F
3. Cn1cc(C(=O)NCC(c2ncc(C#CC3CC3)cc2Cl)C2CC2)c(C(F)F)n1 (centres unmarked)
4. CC(C)(CNC(=O)c1cccnc1C(F)F)c1ncc(C#CC2CC2)cc1Cl
5. CSC(CNC(=O)c1ccccc1C(F)(F)F)c1ncc(C#CC2CC2)cc1Cl (centres unmarked)
6. O=C(NCCc1ncc(C#CC2CC2)cc1Cl)c1ccccc1C(F)(F)F
7. CC(C)(C)C#Cc1cnc(CCNC(=O)c2ccccc2C(F)(F)F)c(Cl)c1
8. Cn1cc(C(=O)NC2CC2c2ncc(C#CC3CC3)cc2Cl)c(C(F)F)n1 (centres unmarked)

≥ 50%
≥ 50%
≥ 50%
≥ 50%
≥ 50%
≥ 50%
≥ 50%
≥ 50%

====

measure: melting point

Below, each entry is followed by its recorded melting point result.
O=C(NCC(F)(F)c1ncc(C#CC2CC2)cc1Cl)c1cccnc1C(F)F ... 116 to 118 °C
CC(NC(=O)c1cccnc1C(F)F)C(SCC(F)(F)F)c1ncc(C#CC2CC2)cc1Cl (centres unmarked) [3-033a] ... 72 to 74 °C
O=C(NCCc1ncc(C#CC2CC2)cc1Cl)c1ccccc1C(F)(F)F ... 105 to 108 °C
Cn1cc(C(=O)N(C(=O)OC(C)(C)C)C2CC2c2ncc(C#CC3CC3)cc2Cl)c(C(F)F)n1 (centres unmarked) ... 110 to 112 °C

Specify measured melting point for O=C(NCC(F)(F)c1ncc(C#CC2CC2)cc1Cl)c1ncccc1C(F)(F)F .
157 to 158 °C

====

measure: melting point

Below, each entry is followed by its recorded melting point result.
Cn1cc(C(=O)NCC(C#N)c2ncc(C#CC3CC3)cc2Cl)c(C(F)F)n1 (centres unmarked) [8-021] ... 43 to 46 °C
CC(C)(C)C#Cc1cnc(CCNC(=O)c2cccnc2C(F)F)c(Cl)c1 [3-002] ... 144 to 146 °C
CC(Cc1ncc(C#CC2CC2)cc1Cl)NC(=O)c1cn(C)nc1C(F)F (centres unmarked) [8-024] ... 127 to 130 °C
Cn1cc(C(=O)NCC(F)(F)c2ncc(C#CC3CC3)cc2Cl)c(C(F)F)n1 [8-003] ... 100 to 101 °C

// below: melting point requested for another molecule
Specify measured melting point for CC(NC(=O)c1cccnc1C(F)(F)F)C(SCC(F)(F)F)c1ncc(C#CC2CC2)cc1Cl (centres unmarked) [3-034a] .
65 to 66 °C

====

Give measured melting point for each item. Keep answers brief.

COC(c1ncc(C#CC(C)(C)C)cc1Cl)C(C)NC(=O)c1ccccc1C(F)(F)F (stereo not drawn) ... 36 to 38 °C
Cn1cc(C(=O)NCCc2ncc(C#CC3CC3)cc2Cl)c(C(F)F)n1 ... 96 to 98 °C
C=C(CNC(=O)c1cn(C)nc1C(F)F)c1ncc(C#CC2CC2)cc1Cl ... 66 to 70 °C

Batch request: melting point per item, same order as input.
1. N#CC(C#N)(CNC(=O)c1ccccc1C(F)(F)F)c1ncc(C#CC2CC2)cc1Cl
2. O=C(NCCc1ncc(C#CC2CC2)cc1Cl)c1cccnc1C(F)F

["42 to 44 °C", "114 to 117 °C"]

Batch request: melting point per item, same order as input.
1. Cn1cc(C(=O)NCC(F)(F)c2ncc(C#CCF)cc2Cl)c(C(F)F)n1
2. COC(CNC(=O)c1cn(C)nc1C(F)F)c1ncc(C#CC2CC2)cc1Cl (stereo not drawn)
3. Cn1cc(C(=O)NC2CC2c2ncc(C#CC3CC3)cc2Cl)c(C(F)F)n1 (stereo not drawn)
4. CC#Cc1cnc(CCNC(=O)c2ccccc2C(F)(F)F)c(Cl)c1

1: 110 to 111 °C; 2: 110 to 111 °C; 3: 176 to 178 °C; 4: 100 to 103 °C
